Counter-ions that a name gives are not always drawn.
propertyMeasured: melting point (°C)

Here's what some known entries look like.
C[C@@H](Nc1cc(F)cc(F)c1)c1cc(C(=O)NCCN(C)C)cc2ncc(N3CCOCC3)nc12 (as salt: sulfonic acid salt) [Compound 184c] = 74
O=C(NCCO)c1cc(C2CCCN2c2cc(F)cc(F)c2)c2nc(N3CCOCC3)cnc2c1 (stereo not shown) [Compound 71] = 80
Cc1c(F)cccc1CNc1cc(C(=O)NCCO)cc2ncc(N3CCOCC3)nc12 [Compound 336] = 194
CC(Oc1cc(F)cc(F)c1)c1cc(-c2cnc[nH]2)cc2ncc(N3CCOCC3)nc12 (single isomer, unassigned) [Compound 22] = 183
CN(C)C(=O)c1cc(C2CCCN2c2ccc(C#N)c(F)c2)c2nc(N3CCOCC3)cnc2c1 (stereo not shown) [Compound 54] = 80
CNCCNC(=O)c1cc(C2CCCN2c2cc(F)cc(F)c2)c2nc(N3CCOCC3)cnc2c1 (single isomer, unassigned) [Compound 17] = 170
COC(=O)c1cc(C2CCCN2c2cc(F)cc(F)c2)c2nc(N3CCOCC3)cnc2c1 (single isomer, unassigned) [Compound 249] = 211
CC(Nc1cc(F)cc(F)c1)c1cc(CNCC(F)F)cc2ncc(N3CCOCC3)nc12 (stereo not shown) [Compound 164] = 116
CCN(c1cccc(F)c1)C(C)c1cc(C(=O)N2CCOCC2)cc2ncc(N3CCOCC3)nc12 (stereo not shown) [Compound 20] = 80
CC(Nc1cc(F)c(F)c(F)c1)c1cc(C(=O)NC[C@@H](C)O)cc2ncc(N3CCOCC3)nc12 (single isomer, unassigned) [Compound 284b] = 112

A: CC(Nc1cccc(F)c1)c1cc(C(=O)N2CCC[C@H]2CO)cc2ncc(N3CCOCC3)nc12 (single isomer, unassigned) [Compound 115]
B: CC(Nc1cc(F)cc(F)c1)c1cc(CN2CCn3nccc3C2)cc2ncc(N3CCOCC3)nc12 (single isomer, unassigned) [Compound 222]
C: O=C(NCCCO)c1cc(C2CCCN2c2cc(F)cc(F)c2)c2nc(N3CCOCC3)cnc2c1 (stereo not shown) [Compound 66]
rank_up(items): orders items by reported melting point in ascending numerical order. Provide the ranking by listing each label in its place in the requested order. C, B, A
(C: 80 °C, B: 163 °C, A: 327 °C)

P: CC(Nc1ccc(F)c(F)c1)c1cc(C(=O)N2CCC[C@H](O)C2)cc2ncc(N3CCOCC3)nc12 (stereo partly shown) [Compound 302]
Q: CC(Nc1cc(F)cc(F)c1)c1cc(C(=O)NCCN(C)C)cc2ncc(N3CCOCC3)nc12 (stereo not shown) [Compound 183]
R: CC(Nc1cc(F)cc(F)c1)c1cc(C(=O)N(C)C)cc2ncc(N3CCOCC3)nc12 (single isomer, unassigned) [Compound 12]
rank_up(items): orders items by reported melting point in ascending numerical order. Provide the ranking by listing each label in its place in the requested order. P, Q, R
(P: 80 °C, Q: 145 °C, R: 218 °C)

I: CN(C)C(=O)c1cc(C2CCCN2c2ccccc2)c2nc(N3CCOCC3)cnc2c1 (stereo not shown) [Compound 27]
II: O=C(c1cc(C2CCCN2c2cc(F)cc(F)c2)c2nc(N3CCOCC3)cnc2c1)N1CCS(=O)(=O)CC1 (single isomer, unassigned) [Compound 38]
Would you kindly point out which of I and II has the smaller melting point figure? Returns: label corresponding to the selected item. I
(I: 80 °C, II: 146 °C)

I: CC(Nc1cc(F)c(F)c(F)c1)c1cc(C(=O)NCC(C)(C)O)cc2ncc(N3CCOCC3)nc12 (stereo not shown) [Compound 292]
II: CC(Nc1cccc(F)c1)c1cc(C(=O)NCC(=O)O)cc2ncc(N3CCOCC3)nc12 (single isomer, unassigned) [Compound 393a]
Between the entries labelled I and II , which has a larger melting point value on record? Returns: label corresponding to the selected item. II
(II: 115 °C, I: 80 °C)
